Target: T1, 4H1406-bA
T1 chain: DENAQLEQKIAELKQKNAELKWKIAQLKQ
Assay: two-hybrid library CCNG1;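 note: natural log of median RNA to DNA barcode read ratio; higher means stronger binding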
experimental endpoint: interaction score

Solved entries:
binder	number
DENAQLEQKIAELKQKNAELKWKIAQLKQ [4H1406-bA]	-0.836
DENAQLEQKIAELKQKIAELKWENAQLEQ [4H1387-bA]	-1.1

A = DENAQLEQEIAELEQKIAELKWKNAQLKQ [4H1072-bA]
B = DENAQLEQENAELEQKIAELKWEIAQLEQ [4H1193-bA]
Prompt line: Compare interaction score: is it lower for A or for B ? Write the label of whichever entry you select.
Response line: B

Data credit: paper PMC10397247
